Tested on: HIV-1 NL4-3
procedureText: PBMC antiviral assay, p24 ELISA
Type: cell-based
cond: human, HIV-1 NL4-3, PBMC donor A; read-out: SI (selective index, CC50/EC50)
quantityMeasured: selectivity ratio at 6 days
One number for each entry.

The compound CC(C)[C@]12O[C@H]1[C@@H]1O[C@]13[C@]1(O[C@H]1C[C@H]1C4=C(CC[C@@]13C)C(=O)OC4)[C@@H]2O [triptolide] on HIV-1 NL4-3: selectivity ratio at 6 days was 11.5

====

System: HIV-1 LAI
procedureText: PBMC antiviral assay, p24 ELISA
Format: cell-based
cond: human, PBMC donor C, read-out: SI (selective index, CC50/EC50)
quantityMeasured: selectivity ratio at 6 days

Lookup result for CC(C)[C@]12O[C@H]1[C@@H]1O[C@]13[C@]1(O[C@H]1C[C@H]1C4=C(CC[C@@]13C)C(=O)OC4)[C@@H]2O [triptolide] ; measured selectivity ratio at 6 days: 7.5

====

procedureText: Cytotoxicity, CellTiter-Glo
Format: cell-based
cond: human, PBMCs, PBMC donor B, mock-infected cell viability
quantityMeasured: CC50 at 6 days (nM)
Give bare numbers, in nM.

Lookup result for CC(C)[C@]12O[C@H]1[C@@H]1O[C@]13[C@]1(O[C@H]1C[C@H]1C4=C(CC[C@@]13C)C(=O)OC4)[C@@H]2O [triptolide] ; measured CC50 at 6 days: 15.3

====

procedureText: Cytotoxicity, CellTiter-Glo
Type: cell-based
cond: human, PBMCs, PBMC donor C, mock-infected cell viability
quantityMeasured: CC50 at 6 days (nM)
Give bare numbers, in nM.

Lookup result for CC(C)[C@]12O[C@H]1[C@@H]1O[C@]13[C@]1(O[C@H]1C[C@H]1C4=C(CC[C@@]13C)C(=O)OC4)[C@@H]2O [triptolide] ; measured CC50 at 6 days: 11.2

====

System: HIV-1 LAI
procedureText: PBMC antiviral assay, p24 ELISA
Format: cell-based
cond: human, PBMC donor A, read-out: SI (selective index, CC50/EC50)
quantityMeasured: selectivity ratio at 6 days

Lookup result for CC(C)[C@]12O[C@H]1[C@@H]1O[C@]13[C@]1(O[C@H]1C[C@H]1C4=C(CC[C@@]13C)C(=O)OC4)[C@@H]2O [triptolide] ; measured selectivity ratio at 6 days: 8.4

====

procedureText: Cytotoxicity, CellTiter-Glo
Type: cell-based
cond: human, PBMCs, PBMC donor A, mock-infected cell viability
quantityMeasured: CC50 at 6 days (nM)
Give bare numbers, in nM.

Lookup result for CC(C)[C@]12O[C@H]1[C@@H]1O[C@]13[C@]1(O[C@H]1C[C@H]1C4=C(CC[C@@]13C)C(=O)OC4)[C@@H]2O [triptolide] ; measured CC50 at 6 days: 12.6

====

System: HIV-1 BaL
procedureText: PBMC antiviral assay, p24 ELISA
Assay type: cell-based
cond: Human immunodeficiency virus 1, BAL, PBMC, 144 h, PBMC donor B, p24, day 6 post-infection
quantityMeasured: EC50
Please report the result as a number followed by the unit.

The compound CC(C)[C@]12O[C@H]1[C@@H]1O[C@]13[C@]1(O[C@H]1C[C@H]1C4=C(CC[C@@]13C)C(=O)OC4)[C@@H]2O [triptolide] on HIV-1 BaL: EC50 was 1.6 nM
